molecular target: UniProt:P09237; assay: Inhibition of matrix metalloprotease-7 (Matrilysin)
Sequence (P09237 whole entry): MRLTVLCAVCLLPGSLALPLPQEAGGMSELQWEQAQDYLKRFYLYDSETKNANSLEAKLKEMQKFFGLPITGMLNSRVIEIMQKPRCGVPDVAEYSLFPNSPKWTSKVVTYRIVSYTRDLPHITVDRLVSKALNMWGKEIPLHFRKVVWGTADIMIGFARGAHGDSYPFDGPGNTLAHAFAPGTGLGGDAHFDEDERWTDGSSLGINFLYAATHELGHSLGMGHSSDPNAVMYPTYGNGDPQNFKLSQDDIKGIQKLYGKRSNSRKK
measurement_kind: log10 Activity (log10 of the value in nM)
Heads up: the numbers are on a log10 scale; they represent Activity in nM.

QUERY: Please give the measured log10 Activity for this molecule: CNC(=O)[C@@H](NC(=O)C(CC(C)C)C(O)C(=O)NO)C(C)(C)C (single isomer, unassigned)
RESULT: 1.30

QUERY: Please give the measured log10 Activity for this molecule: CNC(=O)[C@@H](NC(=O)C(CC(C)C)C(C(=O)NO)C1CCCC1)C(C)(C)C (single isomer, unassigned)
RESULT: 1.30

QUERY: Please give the measured log10 Activity for this molecule: CNC(=O)[C@@H](NC(=O)C(CC(C)C)C(C(=O)NO)C1CCC1)C(C)(C)C (single isomer, unassigned)
RESULT: 1.30

QUERY: Please give the measured log10 Activity for this molecule: CNC(=O)[C@@H](NC(=O)[C@H](CC(C)C)[C@@H](C(=O)NO)C1CCN(C)CC1)C(C)(C)C
RESULT: 2.30

QUERY: Please give the measured log10 Activity for this molecule: CNC(=O)[C@@H](NC(=O)[C@H](CC(C)C)[C@@H](C(=O)NO)C1CCC(C)CC1)C(C)(C)C (some centres not stated)
RESULT: 0.85

QUERY: Please give the measured log10 Activity for this molecule: CNC(=O)[C@@H](NC(=O)[C@H](CC(C)C)[C@@H](C(=O)NO)C1CCSC1)C(C)(C)C (some centres not stated)
RESULT: 0.60

QUERY: Please give the measured log10 Activity for this molecule: CNC(=O)[C@@H](NC(=O)C(CC(C)C)C(C(=O)NO)C1CCCCC1)C(C)(C)C (single isomer, unassigned)
RESULT: 1.30

QUERY: Please give the measured log10 Activity for this molecule: CNC(=O)[C@@H](NC(=O)[C@H](CC(C)C)[C@@H](C(=O)NO)C(C)C)C(C)(C)C
RESULT: 0.70

QUERY: Please give the measured log10 Activity for this molecule: CNC(=O)[C@@H](NC(=O)C(CC(C)C)C(C(=O)NO)C1CC1)C(C)(C)C (single isomer, unassigned)
RESULT: 2.30

QUERY: Please give the measured log10 Activity for this molecule: CC(C)CC(C(=O)N[C@H](C(=O)Nc1ccccn1)C(C)(C)C)C(C(=O)NO)C1CCCC1 (single isomer, unassigned; 12j)
RESULT: 0.48

QUERY: Please give the measured log10 Activity for this molecule: CC(C)C[C@@H](C(=O)N[C@H](C(=O)Nc1ccccn1)C(C)(C)C)[C@@H](C(=O)NO)C1CCC(C)CC1 (some centres not stated)
RESULT: 0.48

QUERY: Please give the measured log10 Activity for this molecule: CNC(=O)[C@@H](NC(=O)C(CC(C)C)C(C(=O)NO)C1CCC(C(C)(C)C)CC1)C(C)(C)C (single isomer, unassigned)
RESULT: 1.70

---

target: Interstitial collagenase (Homo sapiens) (UniProt P03956); assay: Inhibition of matrix metalloprotease-1 (HFC)
Sequence (P03956 whole entry): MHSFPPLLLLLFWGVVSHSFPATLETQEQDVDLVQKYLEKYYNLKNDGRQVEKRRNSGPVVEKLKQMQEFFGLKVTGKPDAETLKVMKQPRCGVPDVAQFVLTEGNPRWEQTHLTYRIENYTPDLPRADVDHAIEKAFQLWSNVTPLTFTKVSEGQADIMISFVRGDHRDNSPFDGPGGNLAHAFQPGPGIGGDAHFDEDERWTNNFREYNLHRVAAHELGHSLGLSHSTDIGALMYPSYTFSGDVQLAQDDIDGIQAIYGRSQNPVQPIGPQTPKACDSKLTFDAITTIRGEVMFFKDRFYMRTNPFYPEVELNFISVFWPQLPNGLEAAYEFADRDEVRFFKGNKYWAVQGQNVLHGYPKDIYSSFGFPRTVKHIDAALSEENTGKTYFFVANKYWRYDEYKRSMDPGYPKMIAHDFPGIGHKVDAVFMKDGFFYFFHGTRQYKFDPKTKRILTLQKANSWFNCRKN
measurement_kind: Activity

QUERY: Please give the measured Activity for this molecule: CNC(=O)[C@@H](NC(=O)[C@H](CC(C)C)[C@@H](C(=O)NO)C(C)C)C(C)(C)C
RESULT: 1 nM

QUERY: Please give the measured Activity for this molecule: CNC(=O)[C@@H](NC(=O)[C@H](CC(C)C)[C@@H](C(=O)NO)C1CCSC1)C(C)(C)C (some centres undefined)
RESULT: 5 nM

QUERY: Please give the measured Activity for this molecule: CNC(=O)[C@@H](NC(=O)[C@H](CC(C)C)[C@@H](C(=O)NO)C1CCC(C)CC1)C(C)(C)C (some centres undefined)
RESULT: 4 nM

QUERY: Please give the measured Activity for this molecule: CNC(=O)[C@@H](NC(=O)C(CC(C)C)C(C(=O)NO)C1CCC1)C(C)(C)C (single isomer, unassigned)
RESULT: 3 nM
